For each entry below, report its normalized RNA/DNA level without ligand (log10) value.
B1: library; a variant is named by its letters at N, in order (parent)
chain: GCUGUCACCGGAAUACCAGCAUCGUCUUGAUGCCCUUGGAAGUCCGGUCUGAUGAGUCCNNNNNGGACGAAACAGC

variants of: B1; experiment: normalized RNA/DNA level without ligand (relative to sTRSVctl = 100) (log10 (% of sTRSVctl)); higher = less ribozyme self-cleavage, higher mRNA level; conditions: HEK293T, reporter: mCherry (pCS4076), ligand present: no
Enter a number only.

Look up normalized RNA/DNA level without ligand (log10) for this variant: AAGAG
1.67

Look up normalized RNA/DNA level without ligand (log10) for this variant: CUUCC
2.03

Look up normalized RNA/DNA level without ligand (log10) for this variant: AAUAU
1.75

Look up normalized RNA/DNA level without ligand (log10) for this variant: CAAGA
1.56

Look up normalized RNA/DNA level without ligand (log10) for this variant: UCGCC
1.87

Look up normalized RNA/DNA level without ligand (log10) for this variant: GAACU
1.83

Look up normalized RNA/DNA level without ligand (log10) for this variant: CGUGA
1.58

Look up normalized RNA/DNA level without ligand (log10) for this variant: CUCAC
2.02

Look up normalized RNA/DNA level without ligand (log10) for this variant: ACUGC
1.95

Look up normalized RNA/DNA level without ligand (log10) for this variant: ACAAU
1.75

Look up normalized RNA/DNA level without ligand (log10) for this variant: GACUU
1.79

Look up normalized RNA/DNA level without ligand (log10) for this variant: AUAUU
1.91

Look up normalized RNA/DNA level without ligand (log10) for this variant: AAAGC
1.79

Look up normalized RNA/DNA level without ligand (log10) for this variant: CUCCA
1.87

Look up normalized RNA/DNA level without ligand (log10) for this variant: UCAUG
1.89

Look up normalized RNA/DNA level without ligand (log10) for this variant: UAAGG
1.89

Look up normalized RNA/DNA level without ligand (log10) for this variant: CUAGA
1.83

Look up normalized RNA/DNA level without ligand (log10) for this variant: UAUAC
1.98

Look up normalized RNA/DNA level without ligand (log10) for this variant: AGGGC
1.93

Look up normalized RNA/DNA level without ligand (log10) for this variant: GUAAU
1.82

Look up normalized RNA/DNA level without ligand (log10) for this variant: ACAGA
1.54

Look up normalized RNA/DNA level without ligand (log10) for this variant: AACGG
1.8
